Tgt: Trypsin, from human pancreas (Homo sapiens)
Assay Protocol: Enzymatic assay, trypsin
Condition Description: at 100 μM
Where a SMILES comes first, the peptide text is derived from it.

{"Molecule": "CC[C@H](C)[C@@H]1NC(=O)[C@@H]2CCCN2C(=O)[C@@H]2CCCN2C(=O)[C@H](CC(=O)O)NC(=O)[C@H](CO)NC(=O)[C@H](CCCCN)NC(=O)[C@H]([C@@H](C)O)NC(=O)[C@@H]2CSSC[C@H](NC1=O)C(=O)N[C@@H](CO)C(=O)N[C@H](C)C(=O)N1CCC[C@H]1C(=O)N[C@@H](Cc1ccccc1)C(=O)N2 [Ex. 49] (HELM PEPTIDE1{F.C.T.K.S.D.P.P.I.C.S.[dA].P}$PEPTIDE1,PEPTIDE1,2:R3-10:R3|PEPTIDE1,PEPTIDE1,1:R1-13:R2$$$V2.0)", "Trypsin at 100 μM % (%)": 96}
{"Molecule": "CC[C@H](C)[C@@H]1NC(=O)[C@@H]2CCCN2C(=O)[C@@H]2CCCN2C(=O)[C@H](CC(=O)O)NC(=O)[C@H](CO)NC(=O)[C@H](CCCCN)NC(=O)[C@H]([C@@H](C)O)NC(=O)[C@@H]2CSSC[C@H](NC1=O)C(=O)N[C@@H](CO)C(=O)N1CCC[C@@H]1C(=O)N[C@@H](CC(=O)O)C(=O)N[C@@H](Cc1ccccc1)C(=O)N2 [Ex. 47] (HELM PEPTIDE1{F.C.T.K.S.D.P.P.I.C.S.[dP].D}$PEPTIDE1,PEPTIDE1,2:R3-10:R3|PEPTIDE1,PEPTIDE1,1:R1-13:R2$$$V2.0)", "Trypsin at 100 μM % (%)": 87}
{"Molecule": "CC[C@H](C)[C@@H]1NC(=O)[C@@H]2CCCN2C(=O)[C@@H]2CCCN2C(=O)[C@H](CC(=O)O)NC(=O)[C@H](CO)NC(=O)[C@H](CCCCN)NC(=O)[C@H]([C@@H](C)O)NC(=O)[C@@H]2CSSC[C@H](NC1=O)C(=O)N[C@@H](Cc1ccccc1)C(=O)N1CCC[C@@H]1C(=O)N1CCC[C@H]1C(=O)N[C@@H](CCCNC(=N)N)C(=O)N2 [Ex. 75] (HELM PEPTIDE1{R.C.T.K.S.D.P.P.I.C.F.[dP].P}$PEPTIDE1,PEPTIDE1,2:R3-10:R3|PEPTIDE1,PEPTIDE1,1:R1-13:R2$$$V2.0)", "Trypsin at 100 μM % (%)": 92.6}
{"Molecule": "CC[C@H](C)[C@@H]1NC(=O)[C@@H]2CCCN2C(=O)[C@@H]2CCCN2C(=O)[C@H](CC(=O)O)NC(=O)[C@H](CO)NC(=O)[C@H](CCCCN)NC(=O)[C@H]([C@@H](C)O)NC(=O)[C@@H]2CSSC[C@H](NC1=O)C(=O)N[C@@H](CC(=O)O)C(=O)N1CCC[C@@H]1C(=O)N1CCC[C@H]1C(=O)N[C@@H](C1CCCCC1)C(=O)N2 [Ex. 39] (HELM PEPTIDE1{[O=C([C@@H](N[*:1])C1CCCCC1)[*:2]].C.T.K.S.D.P.P.I.C.D.[dP].P}$PEPTIDE1,PEPTIDE1,2:R3-10:R3|PEPTIDE1,PEPTIDE1,1:R1-13:R2$$$V2.0)", "Trypsin at 100 μM % (%)": 94}
{"Molecule": "CCCC[C@@H]1NC(=O)[C@@H]2CCCN2C(=O)[C@H]2CCCN2C(=O)[C@H](c2ccccc2)NC(=O)[C@@H]2CSSC[C@H](NC1=O)C(=O)N[C@@H]([C@@H](C)O)C(=O)N[C@@H](C)C(=O)N[C@@H](CO)C(=O)N[C@@H]([C@@H](C)CC)C(=O)N1CCC[C@H]1C(=O)N1CCC[C@H]1C(=O)N[C@@H](CCC(N)=O)C(=O)N2 [Ex. 98] (HELM PEPTIDE1{[Nle].C.T.A.S.I.P.P.Q.C.[Phg].[dP].P}$PEPTIDE1,PEPTIDE1,2:R3-10:R3|PEPTIDE1,PEPTIDE1,1:R1-13:R2$$$V2.0)", "Trypsin at 100 μM % (%)": 0}
{"Molecule": "CC[C@H](C)[C@@H]1NC(=O)[C@@H]2CCCN2C(=O)[C@@H]2CCCN2C(=O)[C@H](CC(=O)O)NC(=O)[C@H](CO)NC(=O)[C@H](CCCCN)NC(=O)[C@H]([C@@H](C)O)NC(=O)[C@@H]2CSSC[C@H](NC1=O)C(=O)N[C@@H](Cc1ccc(O)cc1)C(=O)N1CCC[C@@H]1C(=O)N1CCC[C@H]1C(=O)N[C@@H](Cc1ccc(O)cc1)C(=O)N2 [Ex. 26] (HELM PEPTIDE1{Y.C.T.K.S.D.P.P.I.C.Y.[dP].P}$PEPTIDE1,PEPTIDE1,2:R3-10:R3|PEPTIDE1,PEPTIDE1,1:R1-13:R2$$$V2.0)", "Trypsin at 100 μM % (%)": 84}
{"Molecule": "CCCC[C@@H]1NC(=O)[C@@H]2CCCN2C(=O)[C@H]2CCCN2C(=O)[C@H](Cc2ccc(O)cc2)NC(=O)[C@@H]2CSSC[C@H](NC1=O)C(=O)N[C@@H]([C@@H](C)O)C(=O)N[C@@H](C)C(=O)N[C@@H](CO)C(=O)N[C@@H](CC1CCCCC1)C(=O)N1CCC[C@H]1C(=O)N1CCC[C@H]1C(=O)N[C@@H](CCC(N)=O)C(=O)N2 [Ex. 141] (HELM PEPTIDE1{[Nle].C.T.A.S.[Cha].P.P.Q.C.Y.[dP].P}$PEPTIDE1,PEPTIDE1,2:R3-10:R3|PEPTIDE1,PEPTIDE1,1:R1-13:R2$$$V2.0)", "Trypsin at 100 μM % (%)": 0}
{"Molecule": "CCCC[C@@H]1NC(=O)[C@@H]2CCCN2C(=O)[C@@H]2CCCN2C(=O)[C@H](CC(=O)O)NC(=O)[C@H](CO)NC(=O)[C@H](CCCCN)NC(=O)[C@H]([C@@H](C)O)NC(=O)[C@@H]2CSSC[C@H](NC1=O)C(=O)N[C@@H](CO)C(=O)N1CCC[C@@H]1C(=O)N1CCC[C@H]1C(=O)N[C@@H](Cc1ccccc1)C(=O)N2 [Ex. 15] (HELM PEPTIDE1{F.C.T.K.S.D.P.P.[Nle].C.S.[dP].P}$PEPTIDE1,PEPTIDE1,2:R3-10:R3|PEPTIDE1,PEPTIDE1,1:R1-13:R2$$$V2.0)", "Trypsin at 100 μM % (%)": 95.0}
